# System: RAW-Dual (murine macrophage reporter line)
# Protocol Summary: NF-kB reporter (SEAP) activity fold change vs agonist alone; higher = enhanced NF-kB activity
# Details: modulator concentration 10 µM; agonist: LPS 0.1 ug/mL
NF-kB reporter values for the compounds below.

{"Compound": "FC(F)(F)c1ccc(/C=C/c2nc(COc3ccc(CCCCn4ccnn4)cc3)co2)cc1", "NF-kB reporter": 1.71}
{"Compound": "CNC(=O)c1cc(Oc2ccc(NC(=O)Nc3ccc(Cl)c(C(F)(F)F)c3)cc2)ccn1.Cc1ccc(S(=O)(=O)O)cc1", "NF-kB reporter": 0.8}
{"Compound": "CC(=O)Nc1ccc(CC(=O)N2C3C=CCC2CC3)cc1 (configuration not stated)", "NF-kB reporter": 1.06}
{"Compound": "O=C1NC(=O)c2c1cc1ccccc1c2-c1ccccc1", "NF-kB reporter": 0.979}
{"Compound": "CC(=NN1CCN(Cc2cccc3ccccc23)CC1)c1ccc(Cl)cc1", "NF-kB reporter": 1.06}
{"Compound": "Cc1ccc(S(=O)(=O)NC(=O)NN2CC3CCCC3C2)cc1 (configuration not stated)", "NF-kB reporter": 1.17}
{"Compound": "CC(=O)Nc1ccc(O)cc1 [Prestw-868]", "NF-kB reporter": 1.04}
{"Compound": "COc1ncc(-c2ccc3nccc(-c4ccnnc4)c3c2)cc1NS(=O)(=O)c1ccc(F)cc1F", "NF-kB reporter": 1.79}
{"Compound": "CCOCCn1c(C2CCN(CCc3ccc(C(C)(C)C(=O)O)cc3)CC2)nc2ccccc21", "NF-kB reporter": 0.976}
{"Compound": "COC(=O)Nc1nc2cc(S(=O)c3ccccc3)ccc2[nH]1 (configuration not stated) [Prestw-1459]", "NF-kB reporter": 0.896}
{"Compound": "CN1CCC[C@@H]1CCO[C@](C)(c1ccccc1)c1ccc(Cl)cc1.O=C(O)/C=C/C(=O)O", "NF-kB reporter": 1.01}
{"Compound": "CN1CCN(C2=Nc3ccccc3Oc3ccc(Cl)cc32)CC1 [Prestw-132]", "NF-kB reporter": 0.804}
{"Compound": "CCNC(=O)CCC/C=C\\C[C@@H]1[C@@H](/C=C/C(O)CCc2ccccc2)[C@@H](O)C[C@@H]1O (some centres not stated)", "NF-kB reporter": 0.965}
{"Compound": "Cc1cc(CNS(=O)(=O)Cc2ccc(C(F)(F)F)cc2)c(C)o1", "NF-kB reporter": 0.963}
{"Compound": "O=C(c1cc2nc(-c3ccccc3)cc(-c3ccccc3)n2n1)N1CCCCCC1", "NF-kB reporter": 1.16}
{"Compound": "CC(=NNC(=O)CNc1ccccc1C)c1ccc(Br)cc1", "NF-kB reporter": 1.01}
{"Compound": "CCCCCCCCCCC[C@@H](C[C@@H]1OC(=O)[C@H]1CCCCCC)OC(=O)[C@H](CC(C)C)NC=O", "NF-kB reporter": 0.92}
{"Compound": "O=C(Nc1ccc([N+](=O)[O-])cc1Br)C1CC12CCC2 (configuration not stated)", "NF-kB reporter": 0.83}
{"Compound": "CCN1CC(CCN2CCOCC2)C(c2ccccc2)(c2ccccc2)C1=O.Cl.O (configuration not stated)", "NF-kB reporter": 1.19}
{"Compound": "COc1ccc2[nH]c(S(=O)Cc3ncc(C)c(OC)c3C)nc2n1 (configuration not stated) [Prestw-1351]", "NF-kB reporter": 1.15}
{"Compound": "Clc1cccc(C=Cc2nn3c(Cc4ccccc4)nnc3s2)c1", "NF-kB reporter": 0.927}
{"Compound": "CC1(C)Cc2ccccc2C(C[N+](=O)[O-])=N1", "NF-kB reporter": 0.901}
{"Compound": "CCCCC1=NC2(CCCC2)C(=O)N1Cc1ccc(-c2ccccc2-c2nnn[nH]2)cc1 [Prestw-1736]", "NF-kB reporter": 0.96}
{"Compound": "Cc1cc(OC2CN(C(=O)Cn3cnc4ccccc43)C2)cc(=O)n1C1CC1", "NF-kB reporter": 1.09}
{"Compound": "CN1CCN(c2nc3c(=O)[nH]cnc3n2C2OC(CO)C(O)C2O)CC1 (configuration not stated)", "NF-kB reporter": 1.03}
{"Compound": "CC(=O)Oc1ccc2occ(C(=O)c3cccs3)c2c1", "NF-kB reporter": 0.964}
{"Compound": "COc1cc(C=C2SC(=S)NC2=O)ccc1OCCC(C)C", "NF-kB reporter": 0.969}
{"Compound": "COc1ccc(S(=O)(=O)NCc2ccnc(N3CCOCC3)n2)cc1Cl", "NF-kB reporter": 1.02}
{"Compound": "CC(C)(C)c1cc(C=NO)c(C(C)(C)C)s1", "NF-kB reporter": 1.03}
{"Compound": "COc1ccc(S(=O)(=O)N2CCC(c3ccccc3)S(=O)(=O)CC2)cc1Cl (configuration not stated)", "NF-kB reporter": 1.08}
{"Compound": "O=c1n(CCCN2CCN(c3cccc(Cl)c3)CC2)nc2ccccn12 [Prestw-292]", "NF-kB reporter": 0.912}
{"Compound": "CN1CCN(S(=O)(=O)c2ccc(-c3ccc(S(=O)(=O)N4CCN(C)CC4)cc3)cc2)CC1", "NF-kB reporter": 1.06}
{"Compound": "CC(Oc1cccc(Cl)c1)C(=O)Nc1nncs1 (configuration not stated)", "NF-kB reporter": 0.972}
{"Compound": "Cl.OC(CCCN1CCCCC1)(c1ccccc1)c1ccccc1", "NF-kB reporter": 0.895}
{"Compound": "COc1cc(OC)c(C(=O)CCCN2CCCC2)c(OC)c1.Cl", "NF-kB reporter": 1.01}
{"Compound": "CCCCOc1ccc(CC(=O)NO)cc1", "NF-kB reporter": 1.56}
{"Compound": "CC(=O)N1CCC(C(=O)NCc2cccnc2-c2cnn(C)c2)CC1", "NF-kB reporter": 1.06}
{"Compound": "CC(C)N1CCN(c2ccc(OC[C@H]3CO[C@](Cn4cncn4)(c4ccc(Cl)cc4Cl)O3)cc2)CC1", "NF-kB reporter": 1.15}
{"Compound": "Cc1ccc(C(=O)N(CCCN)[C@@H](c2nc3cc(Cl)ccc3c(=O)n2Cc2ccccc2)C(C)C)cc1", "NF-kB reporter": 0.318}
{"Compound": "O=C1c2ccccc2C(=O)C1c1ccccc1", "NF-kB reporter": 1.01}
{"Compound": "CNC1CCCN(c2c(F)cc3c(=O)c(C(=O)O)cn(C4CC4)c3c2OC)C1 (configuration not stated)", "NF-kB reporter": 0.821}
{"Compound": "Cc1cccc2sc(NNC(=O)c3ccc(S(=O)(=O)N4CCc5ccccc5C4)cc3)nc12", "NF-kB reporter": 0.973}

* * *

# Test system: RAW-Dual (murine macrophage reporter line)
# Protocol Summary: viability score (confluency relative to resting cells, overnight) (fraction); higher = more viable, active = viable (0.7 or more)
# Details: modulator concentration 10 µM
Labels: true (1) = active, false (0) = inactive

{"Compound": "CCN(CC)CCOC(=O)c1ccc(N)cc1.Cl", "Discrete Label": "true (1)"}
{"Compound": "Cc1cccc(C)c1OCC(=O)N[C@@H](Cc1ccccc1)[C@@H](O)C[C@H](Cc1ccccc1)NC(=O)[C@H](C(C)C)N1CCCNC1=O", "Discrete Label": "true (1)"}
{"Compound": "CN(C)CCCNc1cc(C(C)(C)C)nc2c(-c3ccccc3)cnn12", "Discrete Label": "false (0)"}
{"Compound": "COC(=O)C1C(=O)C(=CNc2ccccc2O)C(=O)CC1(C)C (stereo not drawn)", "Discrete Label": "false (0)"}
{"Compound": "C=CC(C)(O)CCC=C(C)C (stereo not drawn)", "Discrete Label": "true (1)"}
{"Compound": "CC(=O)Oc1ccccc1C(=O)O", "Discrete Label": "true (1)"}
{"Compound": "C[C@@H]1CCN(C(=O)CC#N)C[C@@H]1N(C)c1ncnc2[nH]ccc12.O=C(O)CC(O)(CC(=O)O)C(=O)O", "Discrete Label": "false (0)"}
{"Compound": "CN(C)CCCC1(c2ccc(F)cc2)OCc2cc(C#N)ccc21.O=C(O)C(=O)O (stereo not drawn)", "Discrete Label": "true (1)"}
{"Compound": "O=C(CCCCC(=O)NN=Cc1cccc(O)c1)NN=Cc1cccc(O)c1", "Discrete Label": "true (1)"}
{"Compound": "CC(=O)c1cccc(NC(=O)CSc2nnc3c4ccccc4n(C)c3n2)c1", "Discrete Label": "true (1)"}
{"Compound": "ON=C1ON=C(c2ccccc2)C1=NO", "Discrete Label": "true (1)"}
{"Compound": "O=C(NN=Cc1ccc([N+](=O)[O-])o1)c1ccc(O)cc1", "Discrete Label": "true (1)"}
{"Compound": "CCN(CC)CCNc1ccc(CO)c2sc3ccccc3c(=O)c12", "Discrete Label": "true (1)"}
{"Compound": "CC(=O)NC(CS)C(=O)O (stereo not drawn)", "Discrete Label": "true (1)"}
{"Compound": "Cc1cc(OCC(=O)Nc2ccc(Cl)c(C(F)(F)F)c2)ccc1Cl", "Discrete Label": "true (1)"}
{"Compound": "COc1ccccc1-n1ncc2c(C)nnc(SCC(=O)NCc3ccccc3Cl)c21", "Discrete Label": "true (1)"}
{"Compound": "CCOCC(=O)Nc1ccc(N2CCCCC2=O)c(C)c1", "Discrete Label": "true (1)"}
{"Compound": "CCc1cc2c(-c3ccccc3)cc(=O)oc2cc1OC(C)=O", "Discrete Label": "true (1)"}
{"Compound": "CCN(CC)c1ccc(C=Nn2nnnc2N)c(O)c1", "Discrete Label": "true (1)"}
{"Compound": "CCCCCCOc1ccc(N2C(=O)CC(N3CCN(Cc4ccc5c(c4)OCO5)CC3)C2=O)cc1 (stereo not drawn)", "Discrete Label": "true (1)"}
{"Compound": "CCOC(=O)Cc1cc(OC)c(OC)cc1C(C)=NNc1ccccc1", "Discrete Label": "true (1)"}
{"Compound": "O=C(CCn1cnc2ccccc2c1=O)NCC1CCCN1c1ccccc1 (stereo not drawn)", "Discrete Label": "true (1)"}
{"Compound": "CNC(=O)[C@@H](NC(=O)[C@H](CC(C)C)[C@H](O)C(=O)NO)C(C)(C)C", "Discrete Label": "true (1)"}
